- System: ScLsb3
- Assay info: SPOT peptide array binding signal intensity (averaged, normalized) (arbitrary units (background-subtracted, floor 0; scale differs between SH3 domains)); higher = stronger binding of the SH3 domain to the peptide
# maps each entry to its SPOT peptide array binding signal intensity

Worked examples follow.
[
  {
    "Binder": "KTRLRPAFIQQLWSS",
    "Result": 74.5
  },
  {
    "Binder": "AGKRRLPLVRFKASD",
    "Result": 478
  },
  {
    "Binder": "RSLRKRPTSPSISGS",
    "Result": 1330
  },
  {
    "Binder": "NENKKLPPAPTVFGL",
    "Result": "≤ 0"
  },
  {
    "Binder": "IKKRNKIRLPSGSPE",
    "Result": 162
  },
  {
    "Binder": "RSKRLFPVRPMATAH",
    "Result": 1050
  },
  {
    "Binder": "QPQRTAPKPPISAPR",
    "Result": 58
  },
  {
    "Binder": "NHSRSLFSLPGNQQS",
    "Result": 4
  }
]

Tell me measured SPOT peptide array binding signal intensity for `KTKQQKPAIPQKKSF` please.
328

Please look at this binder and report its SPOT peptide array binding signal intensity: `TPEIPPPLPPKIMVH`
6940

Check the records and state SPOT peptide array binding signal intensity for `RRTRLRPPTPLSQLL`
1130

Entry source: the supplement of paper PMC4466140
